These entries and their values trace back to patent US10660939.

biological target: T1, human melanocortin receptor-4 (human, UniProt P32245 1-332); test: competition with Eu-NDP-α-MSH, hMC4r HEK-293 membranes
T1 construct: whole, on cells; cAMP assays on whole cells; also called hMC4r; MC4r
T1 sequence (P32245 whole entry): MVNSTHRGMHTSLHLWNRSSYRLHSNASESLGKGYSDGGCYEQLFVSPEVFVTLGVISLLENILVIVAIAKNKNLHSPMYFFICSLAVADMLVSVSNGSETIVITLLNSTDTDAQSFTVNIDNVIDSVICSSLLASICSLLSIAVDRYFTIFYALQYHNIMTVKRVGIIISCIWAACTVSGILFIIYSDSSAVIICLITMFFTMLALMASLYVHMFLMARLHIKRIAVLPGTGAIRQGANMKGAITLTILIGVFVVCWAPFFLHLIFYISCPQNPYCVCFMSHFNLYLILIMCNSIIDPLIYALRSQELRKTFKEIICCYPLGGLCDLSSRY
Entries and their measured pKi follow.
Please note pKi is a logarithmic value: minus log10 of concentration in mol/L. Answer with that number alone.

RDRFRWK (N-terminal Ac; D-Phe 4; cyclo(Asp 2-Lys 7); C-terminal NH2, also called Ac-Arg-cyclo(Asp-Arg-D-Phe-Arg-Trp-Lys)-NH2) [Peptide No. 28] : 8.40

In the following, a different binder is considered.
Per the records, this binder ( RDRFRWK (N-terminal Ac; D-Phe 4; cyclo(Asp 2-Lys 7); C-terminal OH, also called Ac-Arg-cyclo(Asp-Arg-D-Phe-Arg-Trp-Lys)-OH) [Peptide No. 73] ) has pKi equal to 7.22
